# assay_target: PDGFRα (Homo sapiens (Human), UniProt P16234)
# Sequence (P16234 24-1089): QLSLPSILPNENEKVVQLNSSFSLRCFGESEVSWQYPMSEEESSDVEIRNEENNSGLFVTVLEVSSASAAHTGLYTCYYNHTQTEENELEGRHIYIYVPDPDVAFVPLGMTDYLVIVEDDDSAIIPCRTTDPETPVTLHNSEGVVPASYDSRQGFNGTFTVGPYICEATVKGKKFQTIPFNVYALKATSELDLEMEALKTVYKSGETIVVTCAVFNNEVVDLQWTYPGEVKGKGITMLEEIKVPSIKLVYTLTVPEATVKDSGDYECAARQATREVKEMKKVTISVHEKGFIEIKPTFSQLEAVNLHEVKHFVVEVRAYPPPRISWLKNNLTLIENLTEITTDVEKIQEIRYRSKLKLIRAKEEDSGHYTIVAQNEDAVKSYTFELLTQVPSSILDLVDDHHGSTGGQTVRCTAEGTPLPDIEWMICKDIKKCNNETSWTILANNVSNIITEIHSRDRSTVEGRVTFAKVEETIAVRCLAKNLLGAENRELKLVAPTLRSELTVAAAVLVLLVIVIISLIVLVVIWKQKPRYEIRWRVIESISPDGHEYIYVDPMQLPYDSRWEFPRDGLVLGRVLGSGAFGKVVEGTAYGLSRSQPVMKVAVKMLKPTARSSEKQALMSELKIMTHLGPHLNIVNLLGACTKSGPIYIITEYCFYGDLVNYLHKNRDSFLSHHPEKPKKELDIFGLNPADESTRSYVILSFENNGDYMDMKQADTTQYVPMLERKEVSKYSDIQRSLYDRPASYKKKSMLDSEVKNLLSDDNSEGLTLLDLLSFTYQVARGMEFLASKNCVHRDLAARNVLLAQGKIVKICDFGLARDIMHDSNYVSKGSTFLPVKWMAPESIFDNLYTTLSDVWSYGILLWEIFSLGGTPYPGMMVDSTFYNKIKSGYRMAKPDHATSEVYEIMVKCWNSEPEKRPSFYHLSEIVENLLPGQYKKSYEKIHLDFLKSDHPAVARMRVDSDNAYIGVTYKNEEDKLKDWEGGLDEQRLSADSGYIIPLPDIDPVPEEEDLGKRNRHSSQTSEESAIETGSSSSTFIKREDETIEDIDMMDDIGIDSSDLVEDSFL
# run_description: PDGFRα kinase enzyme assay (Promega PDGFRα Kinase Enzyme System, ADP-Glo)
# Type: biochemical
# condition_set: 11-point dose response, 10,000 nM to 0.169 nM; 150 uM ATP; BLQ = below limit of quantitation; read-out: IC50 Values on PDGFRα Kinase Inhibition, IC50
property_measured: IC50 (µM)

# example entries with known answers
compound: CC1CN(c2ncc(Cc3ccccc3)cn2)CCN1c1cnn2cc(-c3cnn(C)c3)ccc12 (stereo not shown) [Compound 142]
assay_target: PDGFRα (Homo sapiens (Human), UniProt P16234)
property_measured: IC50
measured_number: 9.54

compound: Cn1cc(-c2ccc3c(N4CCN(c5nnc(Cc6ccccc6)s5)CC4)cnn3c2)cn1 [Compound 306]
assay_target: PDGFRα (Homo sapiens (Human), UniProt P16234)
property_measured: IC50
measured_number: 0.00231

compound: CC(C)(C)OC(=O)N1CCN(c2cnn3cc(-c4ccncc4)ccc23)CC1 [Compound 218]
assay_target: PDGFRα (Homo sapiens (Human), UniProt P16234)
property_measured: IC50
measured_number: 2.31

compound: C[C@@H](OC(=O)N1CCN(c2cnn3cc(-c4cnn(C)c4)ccc23)CC1)c1ccccn1 [Compound 260]
assay_target: PDGFRα (Homo sapiens (Human), UniProt P16234)
property_measured: IC50
measured_number: 0.377

A = Cn1cc(-c2ccc3c(N4CCN(c5ncc(CCc6ccccc6)cn5)CC4)cnn3c2)cn1 [Compound 152]
B = Cn1cc(-c2ccc3c(N4CCN(c5ccc(Cc6ccccc6)nc5)CC4)cnn3c2)cn1 [Compound 151]
input: Which of the two items, A and B , has the greater recorded IC50? # respond with the chosen item's label
output: A

====

# assay_target: PDGFRα (Homo sapiens (Human), UniProt P16234)
# run_description: PDGFRα kinase enzyme assay (Promega PDGFRα Kinase Enzyme System, ADP-Glo)
# Format: biochemical
# condition_set: 11-point dose response, 10,000 nM to 0.169 nM; 150 uM ATP; BLQ = below limit of quantitation; read-out: IC50 Values on PDGFRα Kinase Inhibition, IC50
property_measured: IC50 (nM)

# example entries with known answers
item_smiles: Cn1cc(-c2ccc3c(N4CCN(S(=O)(=O)NCc5ccccc5)CC4)cnn3c2)cn1
endpoint_unit: nM
IC50: 450

item_smiles: COCCn1cc(-c2ccc3c(N4CCN(c5ncc(Cc6ccccc6)cn5)CC4)cnn3c2)cn1
endpoint_unit: nM
IC50: 925

A = Cn1cc(-c2ccc3c(N4CCN(c5ncc(CCCc6ccccc6)cn5)CC4)cnn3c2)cn1
B = CC(C)(C)OC(=O)N1CCN(c2cnn3cc(-c4ccccc4)ccc23)CC1
C = Cn1cnc(-c2ccc3c(N4CCN(C(=O)OC(C)(C)C)CC4)cnn3c2)c1
D = Cn1cc(-c2ccc3c(N4CCN(c5ncc(CN6CCCCC6)cn5)CC4)cnn3c2)cn1
E = Cn1cc(-c2ccn3c(N4CCN(c5ncc(Cc6ccccc6)cn5)CC4)cnc3c2)cn1
input: Reorder the items by IC50, least to greatest. Provide the ranking by listing each label in its place in the requested order.
output: E, A, C, B, D
(E: 424 nM, A: 815 nM, C: 1420 nM, B: 5340 nM, D: 8250 nM)
